target: plurality of kinases (Table 5) (Homo sapiens); test: Further analysis of a plurality of inhibitors and a plurality of kinases on microarray (Example IX, Table 5); type: biochemical; conditions: plate G6; inhibitor 100 uM;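 as to Inhibition level, DYRK1A: level 0 none or unclear Level 1 marginal Level 2 substantial inhibition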
parameter: Inhibition level, DYRK1A
Answers are plain numbers.

Consider the worked cases shown below.
[[record]]
compound = "O=S(=O)(NCCNC/C=C/c1ccc(Br)cc1)c1cccc2cnccc12 [H-89]"
test_target = "plurality of kinases (Table 5) (Homo sapiens)"
experimental_value = 2

[[record]]
compound = "CC(=O)c1c(O)c(C)c(O)c(Cc2c(O)c3c(c(C(=O)/C=C/c4ccccc4)c2O)OC(C)(C)C=C3)c1O [Rottlerin (Mallotoxin)]"
test_target = "plurality of kinases (Table 5) (Homo sapiens)"
experimental_value = 0

[[record]]
compound = "CC(C)(C)n1nc(-c2ccc(Cl)cc2)c2c(N)ncnc21 [PP2]"
test_target = "plurality of kinases (Table 5) (Homo sapiens)"
experimental_value = 1

[[record]]
compound = "Cn1cc(C2=C(c3cn(CCCSC(=N)N)c4ccccc34)C(=O)NC2=O)c2ccccc21 [Ro-31-8220]"
test_target = "plurality of kinases (Table 5) (Homo sapiens)"
experimental_value = 2

[[record]]
compound = "O=c1c(-c2ccc(O)cc2)coc2cc(O)cc(O)c12 [Genistein]"
test_target = "plurality of kinases (Table 5) (Homo sapiens)"
experimental_value = 2

[[record]]
compound = "N#C/C(=C/c1ccc(O)c(O)c1)C(=O)NCc1ccccc1 [AG 490]"
test_target = "plurality of kinases (Table 5) (Homo sapiens)"
experimental_value = 2


COc1cc2ncnc(Nc3cccc(Cl)c3)c2cc1OC [AG 1478] yielded Inhibition level, DYRK1A of 0

###

target: plurality of kinases (Table 5) (Homo sapiens, UniProt Q99759); test: Further analysis of a plurality of inhibitors and a plurality of kinases on microarray (Example IX, Table 5); type: biochemical; settings: plate A1; inhibitor 100 uM
Sequence (Q99759 whole entry): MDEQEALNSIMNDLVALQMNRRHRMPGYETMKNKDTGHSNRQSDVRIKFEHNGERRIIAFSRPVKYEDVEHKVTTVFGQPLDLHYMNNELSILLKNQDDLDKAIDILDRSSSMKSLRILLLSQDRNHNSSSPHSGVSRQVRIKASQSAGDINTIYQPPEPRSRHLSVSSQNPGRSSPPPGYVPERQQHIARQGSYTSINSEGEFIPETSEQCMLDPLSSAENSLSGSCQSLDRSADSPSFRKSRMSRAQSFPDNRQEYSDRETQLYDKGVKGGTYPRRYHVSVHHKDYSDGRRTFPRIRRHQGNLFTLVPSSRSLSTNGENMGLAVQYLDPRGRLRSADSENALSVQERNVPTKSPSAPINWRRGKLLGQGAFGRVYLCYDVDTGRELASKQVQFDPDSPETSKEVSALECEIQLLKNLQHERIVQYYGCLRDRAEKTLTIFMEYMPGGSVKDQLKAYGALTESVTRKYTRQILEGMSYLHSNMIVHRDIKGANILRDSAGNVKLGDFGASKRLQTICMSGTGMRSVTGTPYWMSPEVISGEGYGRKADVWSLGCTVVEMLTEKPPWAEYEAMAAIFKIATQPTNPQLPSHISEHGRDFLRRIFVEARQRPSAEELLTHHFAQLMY
Kindly supply the reported Inhibition level, MAP3K3 values for the records listed here.
Give bare numbers.

Here are 6 molecules together with their reported answers.
[[record]]
given_smiles = "O=c1c(-c2ccc(O)cc2)coc2cc(O)cc(O)c12"
experimental_value = 2

[[record]]
given_smiles = "N#C/C(=C/c1ccc(O)c(O)c1)C(=O)NCc1ccccc1"
experimental_value = 2

[[record]]
given_smiles = "COc1cc2ncnc(Nc3cccc(Cl)c3)c2cc1OC"
experimental_value = 2

[[record]]
given_smiles = "CC(C)(C)n1nc(-c2ccc(Cl)cc2)c2c(N)ncnc21"
experimental_value = 2

[[record]]
given_smiles = "CC(=O)c1c(O)c(C)c(O)c(Cc2c(O)c3c(c(C(=O)/C=C/c4ccccc4)c2O)OC(C)(C)C=C3)c1O"
experimental_value = 2

[[record]]
given_smiles = "O=S(=O)(NCCNC/C=C/c1ccc(Br)cc1)c1cccc2cnccc12"
experimental_value = 2


State the recorded Inhibition level, MAP3K3 for every item in the following list.
1. O=c1c(O)c(-c2ccc(O)c(O)c2)oc2cc(O)cc(O)c12
2. Cn1cc(C2=C(c3cn(CCCSC(=N)N)c4ccccc34)C(=O)NC2=O)c2ccccc21

1: 0; 2: 0

###

molecular target: plurality of kinases (Table 5) (Homo sapiens); test: Further analysis of a plurality of inhibitors and a plurality of kinases on microarray (Example IX, Table 5); assay type: biochemical; conditions: plate A2; inhibitor 100 uM;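 as to Inhibition level, PRKCI: level 0 none or unclear Level 1 marginal Level 2 substantial inhibition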
parameter: Inhibition level, PRKCI
One number for each entry.

// worked examples, Inhibition level, PRKCI included
[[record]]
given_smiles = "O=c1c(O)c(-c2ccc(O)c(O)c2)oc2cc(O)cc(O)c12"
parameter = "Inhibition level, PRKCI"
experimental_value = 0

[[record]]
given_smiles = "N#C/C(=C/c1ccc(O)c(O)c1)C(=O)NCc1ccccc1"
parameter = "Inhibition level, PRKCI"
experimental_value = 2

[[record]]
given_smiles = "Cn1cc(C2=C(c3cn(CCCSC(=N)N)c4ccccc34)C(=O)NC2=O)c2ccccc21"
parameter = "Inhibition level, PRKCI"
experimental_value = 0


For each listed entry, give its Inhibition level, PRKCI.
1. CC(C)(C)n1nc(-c2ccc(Cl)cc2)c2c(N)ncnc21
2. O=c1c(-c2ccc(O)cc2)coc2cc(O)cc(O)c12
3. O=S(=O)(NCCNC/C=C/c1ccc(Br)cc1)c1cccc2cnccc12
4. CC(=O)c1c(O)c(C)c(O)c(Cc2c(O)c3c(c(C(=O)/C=C/c4ccccc4)c2O)OC(C)(C)C=C3)c1O
5. COc1cc2ncnc(Nc3cccc(Cl)c3)c2cc1OC

1: 1; 2: 2; 3: 2; 4: 2; 5: 0

###

biological target: plurality of kinases (Table 5) (Homo sapiens, UniProt P06239); assay: Further analysis of a plurality of inhibitors and a plurality of kinases on microarray (Example IX, Table 5); assay type: biochemical; conditions: plate A6; inhibitor 100 uM
Sequence (P06239 whole entry): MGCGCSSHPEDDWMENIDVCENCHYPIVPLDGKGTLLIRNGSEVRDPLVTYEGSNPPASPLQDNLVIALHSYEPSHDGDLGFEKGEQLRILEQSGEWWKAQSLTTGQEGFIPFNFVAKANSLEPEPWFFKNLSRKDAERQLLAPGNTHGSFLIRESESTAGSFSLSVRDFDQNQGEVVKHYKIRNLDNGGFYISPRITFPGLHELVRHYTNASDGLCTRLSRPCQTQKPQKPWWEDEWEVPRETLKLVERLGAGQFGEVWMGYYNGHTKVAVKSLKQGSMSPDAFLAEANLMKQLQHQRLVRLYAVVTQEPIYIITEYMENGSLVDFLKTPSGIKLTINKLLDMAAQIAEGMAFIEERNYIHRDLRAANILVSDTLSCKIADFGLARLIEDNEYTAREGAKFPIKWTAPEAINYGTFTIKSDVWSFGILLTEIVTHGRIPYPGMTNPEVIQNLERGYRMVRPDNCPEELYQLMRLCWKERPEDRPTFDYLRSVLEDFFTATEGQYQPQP
Would you kindly list Inhibition level, LCK for each of these compounds?
One number for each entry.

See these solved cases before continuing.
[[record]]
given_smiles = "CC(=O)c1c(O)c(C)c(O)c(Cc2c(O)c3c(c(C(=O)/C=C/c4ccccc4)c2O)OC(C)(C)C=C3)c1O"
experimental_value = 2

[[record]]
given_smiles = "O=S(=O)(NCCNC/C=C/c1ccc(Br)cc1)c1cccc2cnccc12"
experimental_value = 2

[[record]]
given_smiles = "Cn1cc(C2=C(c3cn(CCCSC(=N)N)c4ccccc34)C(=O)NC2=O)c2ccccc21"
experimental_value = 2


Record Inhibition level, LCK per entry; entries follow.
1. O=c1c(-c2ccc(O)cc2)coc2cc(O)cc(O)c12
2. N#C/C(=C/c1ccc(O)c(O)c1)C(=O)NCc1ccccc1

[2, 2]

###

Please provide measured Inhibition level, LOC57118 for the entries that follow.
target: plurality of kinases (Table 5) (Homo sapiens); assay: Further analysis of a plurality of inhibitors and a plurality of kinases on microarray (Example IX, Table 5); format: biochemical; settings: plate D2; inhibitor 100 uM;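 as to Inhibition level, LOC57118: level 0 none or unclear then 1 little or marginal then 2 substantial inhibition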
Numbers only.

# annotated cases, reported Inhibition level, LOC57118 shown
[[record]]
given_smiles = "CC(C)(C)n1nc(-c2ccc(Cl)cc2)c2c(N)ncnc21"
test_target = "plurality of kinases (Table 5) (Homo sapiens)"
experimental_value = 0

[[record]]
given_smiles = "N#C/C(=C/c1ccc(O)c(O)c1)C(=O)NCc1ccccc1"
test_target = "plurality of kinases (Table 5) (Homo sapiens)"
experimental_value = 1

[[record]]
given_smiles = "O=c1c(-c2ccc(O)cc2)coc2cc(O)cc(O)c12"
test_target = "plurality of kinases (Table 5) (Homo sapiens)"
experimental_value = 0


Take each entry in turn and give its Inhibition level, LOC57118.
1. O=c1c(O)c(-c2ccc(O)c(O)c2)oc2cc(O)cc(O)c12
2. CC(=O)c1c(O)c(C)c(O)c(Cc2c(O)c3c(c(C(=O)/C=C/c4ccccc4)c2O)OC(C)(C)C=C3)c1O

[0, 0]

###

target: plurality of kinases (Table 5) (Homo sapiens); assay: Further analysis of a plurality of inhibitors and a plurality of kinases on microarray (Example IX, Table 5); assay type: biochemical; settings: plate D4; inhibitor 100 uM
parameter: Inhibition level, PAK3
Give bare numbers.

For the 5 molecules below, give their Inhibition level, PAK3 values.
1. O=S(=O)(NCCNC/C=C/c1ccc(Br)cc1)c1cccc2cnccc12 [H-89]
2. N#C/C(=C/c1ccc(O)c(O)c1)C(=O)NCc1ccccc1 [AG 490]
3. CC(=O)c1c(O)c(C)c(O)c(Cc2c(O)c3c(c(C(=O)/C=C/c4ccccc4)c2O)OC(C)(C)C=C3)c1O [Rottlerin (Mallotoxin)]
4. COc1cc2ncnc(Nc3cccc(Cl)c3)c2cc1OC [AG 1478]
5. CC(C)(C)n1nc(-c2ccc(Cl)cc2)c2c(N)ncnc21 [PP2]

[2, 1, 0, 2, 2]

###

biological target: plurality of kinases (Table 5) (Homo sapiens, UniProt Q8IV63); test: Further analysis of a plurality of inhibitors and a plurality of kinases on microarray (Example IX, Table 5); assay type: biochemical; conditions: plate C12; inhibitor 100 uM;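 also: inhibition of each kinase by the inhibitors is given as a qualitative level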
Sequence (Q8IV63 whole entry): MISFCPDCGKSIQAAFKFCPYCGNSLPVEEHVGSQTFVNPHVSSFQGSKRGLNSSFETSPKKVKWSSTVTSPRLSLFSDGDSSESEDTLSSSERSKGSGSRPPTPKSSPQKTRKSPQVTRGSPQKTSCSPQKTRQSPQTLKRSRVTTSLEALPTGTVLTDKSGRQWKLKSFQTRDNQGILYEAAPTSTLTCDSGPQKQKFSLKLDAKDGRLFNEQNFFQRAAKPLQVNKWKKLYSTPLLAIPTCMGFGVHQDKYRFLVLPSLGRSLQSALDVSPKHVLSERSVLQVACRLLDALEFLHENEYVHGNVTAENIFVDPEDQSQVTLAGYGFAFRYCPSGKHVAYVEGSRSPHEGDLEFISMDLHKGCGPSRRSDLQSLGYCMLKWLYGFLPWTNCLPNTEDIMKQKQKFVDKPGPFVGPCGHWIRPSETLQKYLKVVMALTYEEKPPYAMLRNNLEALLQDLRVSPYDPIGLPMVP
parameter: Inhibition level, LOC51231

[[record]]
molecule = "CC(=O)c1c(O)c(C)c(O)c(Cc2c(O)c3c(c(C(=O)/C=C/c4ccccc4)c2O)OC(C)(C)C=C3)c1O [Rottlerin (Mallotoxin)]"
experimental_value = 0


List reported Inhibition level, LOC51231 for each of these molecules:
1. N#C/C(=C/c1ccc(O)c(O)c1)C(=O)NCc1ccccc1 [AG 490]
2. COc1cc2ncnc(Nc3cccc(Cl)c3)c2cc1OC [AG 1478]
3. Cn1cc(C2=C(c3cn(CCCSC(=N)N)c4ccccc34)C(=O)NC2=O)c2ccccc21 [Ro-31-8220]
4. O=S(=O)(NCCNC/C=C/c1ccc(Br)cc1)c1cccc2cnccc12 [H-89]
5. O=c1c(-c2ccc(O)cc2)coc2cc(O)cc(O)c12 [Genistein]

0
0
2
2
2

Take each entry in turn and give its Inhibition level, LOC51231.
1. CC(C)(C)n1nc(-c2ccc(Cl)cc2)c2c(N)ncnc21 [PP2]
2. O=c1c(O)c(-c2ccc(O)c(O)c2)oc2cc(O)cc(O)c12 [Quercetin]

1. 0
2. 0
